# METHOD DESCRIPTION: in vitro
# REPORTED CONDITIONS: female, human, % Recovery

{"columns": ["SMILES", "recovery at 48 h, 100 µM"],
 "data": [
  ["Cn1c(=O)c2c(ncn2C)n(C)c1=O", "104%"]
]}

* * *

# METHOD DESCRIPTION: in vitro
# REPORTED CONDITIONS: female, human, % Recovery, Mean ± S.D.

{"columns": ["SMILES", "recovery at 48 h, 100 µM [%]"],
 "data": [
  ["Cn1c(=O)c2c(ncn2C)n(C)c1=O", 95.6]
]}
